Test system: Escherichia coli TOP10
Assay: shrunken log2 fold change of peptide-encoding DNA abundance (4.5 h post-induction vs induction); higher = less antimicrobial activity (less host growth inhibition)
Conditions: time post-induction: 4.5 h; library: site-saturation at positions 5, 18, 19, 20
Task for the reader: assign each of the following sequences its reported shrunken log2 fold change.
Answers are plain numbers.

RRIRHRPPRLPRPRPRPMQYPRP	-0.104
RRIRMRPPRLPRPRPRPWSRPRP	0.163
RRIRFRPPRLPRPRPRPWYYPRP	-0.735
RRIRHRPPRLPRPRPRPFIWPRP	-0.162
RRIRMRPPRLPRPRPRPVKNPRP	0.00715
RRIRARPPRLPRPRPRPIWGPRP	0.302
RRIRGRPPRLPRPRPRPKYYPRP	0.0864

Kindly consider the entry below.
Q: Quick check: shrunken log2 fold change of `RRIRDRPPRLPRPRPRPVRTPRP` ?
Ans: -0.176

* * *

System: Escherichia coli TOP10
Experiment: shrunken log2 fold change of peptide-encoding DNA abundance (4.5 h post-induction vs induction); higher = less antimicrobial activity (less host growth inhibition)
Conditions: time post-induction: 4.5 h; library: site-saturation at positions 5, 18, 19, 20
Task for the reader: assign each of the following sequences its reported shrunken log2 fold change.
One number for each entry.

RRIRHRPPRLPRPRPRPILEPRP	0.077
RRIRRRPPRLPRPRPRPGYRPRP	-0.119
RRIRWRPPRLPRPRPRPPFEPRP	0.765
RRIRNRPPRLPRPRPRPFLLPRP	-0.295
RRIRIRPPRLPRPRPRPIWNPRP	-0.263

Quick one: give me shrunken log2 fold change for each item below, same order please.
1. RRIRWRPPRLPRPRPRPNVKPRP
2. RRIRQRPPRLPRPRPRPVRQPRP
3. RRIRTRPPRLPRPRPRPFPMPRP
4. RRIRLRPPRLPRPRPRPYNSPRP
5. RRIRRRPPRLPRPRPRPCRAPRP
6. RRIRGRPPRLPRPRPRPGWEPRP
7. RRIRQRPPRLPRPRPRPRWWPRP

Ans:
1. -0.278
2. 0.0135
3. -0.596
4. -0.514
5. 0.182
6. 0.506
7. 0.417

Quick one: give me shrunken log2 fold change for each item below, same order please.
1. RRIRERPPRLPRPRPRPHQLPRP
2. RRIRVRPPRLPRPRPRPDYCPRP
3. RRIRIRPPRLPRPRPRPPRPPRP
4. RRIRYRPPRLPRPRPRPIMTPRP
5. RRIRSRPPRLPRPRPRPGSLPRP
6. RRIRPRPPRLPRPRPRPCPVPRP
7. RRIRHRPPRLPRPRPRPKRQPRP

Ans:
1: 0.0377; 2: -0.207; 3: 0.822; 4: -0.991; 5: -0.0216; 6: -0.0845; 7: -0.0409

* * *

Tested on: Escherichia coli TOP10;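 also: peptides expressed intracellularly from a pBAD plasmid library in pooled LB shake-flask culture, induced with 0.3% L-arabinose, DNA abundance read by NGS, three biological replicates, DESeq2 with apeglm shrinkage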
Assay: shrunken log2 fold change of peptide-encoding DNA abundance (4.5 h post-induction vs induction); higher = less antimicrobial activity (less host growth inhibition)
Conditions: time post-induction: 4.5 h; library: site-saturation at positions 5, 18, 19, 20
Label Criterion met when shrunken log2 fold change >= 0.02; otherwise Criterion not met.

Some solved cases for reference:
RRIRFRPPRLPRPRPRPRSDPRP	Criterion met
RRIRQRPPRLPRPRPRPENRPRP	Criterion met
RRIRVRPPRLPRPRPRPSWRPRP	Criterion not met
RRIRLRPPRLPRPRPRPPDGPRP	Criterion met
RRIRERPPRLPRPRPRPLVDPRP	Criterion not met

Q: // inclusive: shrunken log2 fold change at least 0.02? input: `RRIRPRPPRLPRPRPRPMPNPRP`
Ans: Criterion met

Q: // inclusive: shrunken log2 fold change at least 0.02? input: `RRIRVRPPRLPRPRPRPFEDPRP`
Ans: Criterion not met

Q: // inclusive: shrunken log2 fold change at least 0.02? input: `RRIRKRPPRLPRPRPRPASVPRP`
Ans: Criterion met

Q: // inclusive: shrunken log2 fold change at least 0.02? input: `RRIRFRPPRLPRPRPRPEWVPRP`
Ans: Criterion not met

These entries and their values trace back to the supplement of paper PMC9112550.
